Molecular target: LOX (Mus musculus, UniProt P28301)
Construct: Full length LOX cDNA was then PCR cloned into pEGFP-N1 (Clonetech), or biosensor vector proGFP2-N1; expressed in transfected cells; host or cells: MDCK cells grown as cysts on Matrigel, G418-selected
Sequence (P28301 163-411): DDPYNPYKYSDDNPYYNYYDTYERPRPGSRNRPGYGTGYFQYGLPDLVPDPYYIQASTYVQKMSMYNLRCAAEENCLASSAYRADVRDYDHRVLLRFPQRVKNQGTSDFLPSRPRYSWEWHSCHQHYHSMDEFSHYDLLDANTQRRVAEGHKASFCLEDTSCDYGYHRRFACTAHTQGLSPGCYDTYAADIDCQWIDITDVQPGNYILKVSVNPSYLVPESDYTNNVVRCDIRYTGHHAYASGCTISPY
Test: LOX activity in cysts assay (LOX-roGFP2 biosensor, MDCK cysts)
Format: cell-based
Conditions: 10 uM; MDCK cysts; inhibitor added 30 min prior to imaging; DMSO = 0%, BAPN 1 mM = 100% inhibition; read-out: LOX biosensor inhibition (cyst) @ 10 uM
quantity: inhibition at 10 µM
Respond with a number, then the unit of measure.

- structure smiles string: "CC1(C)C[C@@H]2CN(C(=O)NCCO)C[C@H]1N(c1ccc(N3CCOCC3)cc1)C2"
  inhibition at 10 µM: "88%"
- structure smiles string: "C#CCN1C[C@@H]2CN(c3ccc(OCC)cc3)[C@H](C1)C(C)(C)C2"
  inhibition at 10 µM: "87%"
- structure smiles string: "CCOc1ccc(N2C[C@H]3CN(C(=O)Nc4ccc(OC)cc4)C[C@@H]2C(C)(C)C3)cc1"
  inhibition at 10 µM: "91%"

Give inhibition at 10 µM; test system LOX (Mus musculus, UniProt P28301); compound CC1(C)C[C@@H]2CN(CCCC#N)C[C@H]1N(c1ccc(N3CCS(=O)(=O)CC3)cc1)C2
75%

Enter inhibition at 10 µM (test system LOX (Mus musculus, UniProt P28301)) for CCOc1ccc(N2C[C@H]3CN(C(=O)c4ccccn4)C[C@@H]2C(C)(C)C3)cc1
75%

Write inhibition at 10 µM of CC1(C)C[C@@H]2CN(C(=O)N3CCS(=O)(=O)CC3)C[C@H]1N(c1cccc(N3CCS(=O)(=O)CC3)c1)C2 ; system used: LOX (Mus musculus, UniProt P28301)
100%

Determine reported inhibition at 10 µM for CCOc1ccc(N2C[C@H]3CN(CC4(CC#N)CC4)C[C@@H]2C(C)(C)C3)cc1 ; test system: LOX (Mus musculus, UniProt P28301).
59%

Give inhibition at 10 µM for this entry on LOX (Mus musculus, UniProt P28301): CC1(C)C[C@@H]2CN(C(=O)N3CCOCC3)C[C@H]1N(c1ccc(N3CCS(=O)(=O)CC3)cc1)C2
100%

----------
Reported pIC50 values follow for various compounds
biological target: LOX (Mus musculus); construct: Full length LOX cDNA was then PCR cloned into pEGFP-N1 (Clonetech), or biosensor vector proGFP2-N1; assay: LOX activity in cysts assay (LOX-roGFP2 biosensor, MDCK cysts); settings: MDCK cysts, roGFP2 ratio at basal surface; read-out: LOX biosensor IC50 (cyst)
The scale used: pIC50 is minus the common logarithm of the concentration in molar units.

- compound: "CC1(C)C[C@@H]2CN(CCCC#N)C[C@H]1N(c1ccc(N3CCS(=O)(=O)CC3)cc1)C2 [Example 39]"
  pIC50: 5.50

Look up LOX (Mus musculus) data: pIC50 of CCOc1ccc(N2C[C@H]3CN(C(=O)NCCc4c[nH]cn4)C[C@@H]2C(C)(C)C3)cc1 [Example 26] , then report it.
6.47

Answer briefly: pIC50 recorded on LOX (Mus musculus) for CC1(C)C[C@@H]2CN(C(=O)NCCO)C[C@H]1N(c1ccc(N3CCOCC3)cc1)C2 [Example 4]
6.21

State pIC50 on LOX (Mus musculus). Entry: CCOc1ccc(N2C[C@@H]3CC4(CCCCC4)[C@H]2CCN3C(=O)NCCO)cc1 [Example 23]
6.43

Look up LOX (Mus musculus) data: pIC50 of CC1(C)C[C@@H]2CN(c3ccc(N4CCS(=O)(=O)CC4)cc3)[C@H]1CCN2C(=O)N1CCS(=O)(=O)CC1 [Example 9] , then report it.
6.16

Quote pIC50 with test system LOX (Mus musculus) for CC1(C)C[C@@H]2CN(C(=O)NC3CCOCC3)C[C@H]1N(c1ccc(N3CCS(=O)(=O)CC3)cc1)C2 [Example 7]
6.27

Report value: pIC50, system: LOX (Mus musculus), compound: C#CCCCN1C[C@@H]2CN(c3ccc(OCC)cc3)[C@H](C1)C(C)(C)C2 [Example 44]
6.51

Quote LOX (Mus musculus) pIC50 for entry COCCOc1ccc(N2C[C@H]3CN(C(=O)NCCO)C[C@@H]2C(C)(C)C3)cc1 [Example 27] .
6.00

Quote pIC50 with test system LOX (Mus musculus) for CC1(C)C[C@@H]2CN(C(=O)NCCO)C[C@H]1N(c1ccc(N3CCC(F)(F)CC3)cc1)C2 [Example 30]
6.48

Report value only: pIC50, LOX (Mus musculus), CCOc1ccc(N2C[C@H]3CN(C(=O)NCCO)C[C@@H]2C(C)(C)C3)cc1 [Example 12]
6.05

Under LOX (Mus musculus): report pIC50 of CC1(C)C[C@@H]2CN(C(=O)N3CCS(=O)(=O)CC3)C[C@H]1N(c1ccc(N3CCS(=O)(=O)CC3)cc1)C2 [Example 8] .
6.27

Look up LOX (Mus musculus) data: pIC50 of CCOc1ccc(N2C[C@H]3CN(C(=O)NCCS(C)(=O)=O)C[C@@H]2C(C)(C)C3)cc1 [Example 13] , then report it.
5.99
